conditions: in n-butyl acetate, 338.18 K
EXPERIMENTAL_ENDPOINT: solubility (mole fraction)
# answer = number (no unit)

Query block: # query: solubility (mole fraction) of entry c1nc[nH]n1
Result block: 0.0809

* * *

conditions: in isopropanol, 288.21 K
EXPERIMENTAL_ENDPOINT: solubility (mole fraction)
Could you respond with only the numeric value?

Query block: What solubility (mole fraction) value was documented for this compound, c1nc[nH]n1 ?
Result block: 0.144

* * *

conditions: in methyl acetate, 323.24 K
EXPERIMENTAL_ENDPOINT: solubility (mole fraction)

Query block: So what's the measured solubility (mole fraction) for this one? c1nc[nH]n1
Result block: 0.21

* * *

conditions: in methyl acetate, 313.18 K
EXPERIMENTAL_ENDPOINT: solubility (mole fraction)
Just the number, please.

Query block: What value of solubility (mole fraction) has been recorded for this entry: c1nc[nH]n1
Result block: 0.171

* * *

conditions: in propylene glycol, 338.29 K
EXPERIMENTAL_ENDPOINT: solubility (mole fraction)
// no unit string in output, number only

Query block: Name the reported solubility (mole fraction) value associated with the molecule c1nc[nH]n1
Result block: 0.545

* * *

settings: in n-butyl acetate, 328.24 K
EXPERIMENTAL_ENDPOINT: solubility (mole fraction)
Just the number, please, no unit after it.

Query block: # query: solubility (mole fraction) of entry c1nc[nH]n1
Result block: 0.0586

* * *

details: in n-butyl acetate, 333.19 K
EXPERIMENTAL_ENDPOINT: solubility (mole fraction)

Query block: // lookup solubility (mole fraction) for c1nc[nH]n1
Result block: 0.0688

Each recorded value in this set is attributed to BigSolDB 2.1.
